Quick list: melting point per entry.

Nc1cccc(C(=O)Nc2ccncc2)c1 :: 224 to 226 °C
CC(C)c1nc(-c2cccc3ncccc23)n[nH]1 :: 143 to 145 °C
O=C(O)CCOc1cc(Cl)ccc1Cl :: 145 to 147 °C
O=C(O)c1sccc1S(=O)(=O)N1CCC(O)CC1 :: 219 to 221 °C
CCNC(=O)CC(=O)O :: 51 to 53 °C
COc1ccccc1C(C#N)NC(=O)OC(C)(C)C (configuration not stated) :: 79 to 81 °C
C/C(=N\NC(N)=S)c1ccccc1 :: 114 to 116 °C
C/C(Cn1nc(C)cc1C)=N\O :: 114 to 116 °C
CC(C)Oc1ccc([N+](=O)[O-])cc1CBr :: 69 to 71 °C
NC(=O)c1nnn(-c2ccccc2)c1N :: 160 to 162 °C

Find the measured melting point of Cc1ccccc1C(O)CN (configuration not stated) and report it.
88 to 90 °C

Find the measured melting point of N#Cc1c(F)c(N)c(F)c(F)c1C#N and report it.
159 to 161 °C

Find the measured melting point of ON=Cc1ccncn1 and report it.
150 to 152 °C

Find the measured melting point of NS(=O)(=O)c1ccnc(Cl)c1 and report it.
134 to 136 °C

Find the measured melting point of COc1ccc(NC2=C(Cl)C(=O)N(c3ccc(C)cc3)C2=O)cc1 and report it.
194 to 196 °C

Find the measured melting point of Nc1cccc(S(=O)(=O)N2CCNC(=O)C2)c1 and report it.
189 to 191 °C

Find the measured melting point of O=C1CCN(c2ccc(Cl)cc2)CC1 and report it.
54 to 56 °C

---

Quick list: melting point per entry.

Example results:
O=C1COc2cc(F)ccc2N1 :: 206 to 208 °C
CC1Nc2cc(=O)[nH]n2C(C)C1CC(=O)O (stereo not given) :: 235 to 237 °C

Find the measured melting point of O=C1OCCN1c1ccc(O)cc1 and report it.
177 to 179 °C

Find the measured melting point of CCOc1cc(-c2ccccc2)sc1C(=O)O and report it.
174 to 176 °C

Find the measured melting point of O=C(NC1(C(=O)O)CCCCC1)c1ccc(Br)cc1 and report it.
238 to 240 °C

Find the measured melting point of O=C(O)c1cc(Cl)cc(Cl)c1I and report it.
173 to 175 °C

Find the measured melting point of CCOC(=O)c1sc(N)c(C#N)c1C and report it.
212 to 214 °C

---

Measured property: melting point

Example results:
Cn1c(S)nc2cc(S(N)(=O)=O)ccc21 :: 313 to 315 °C
Cc1nc(-c2cc(C(=O)O)n(C)c2)cs1 :: 171 to 173 °C
CSCCC(NC(=O)c1cccc(C)c1)C(=O)O (centres undefined) :: 115 to 117 °C

Find the measured melting point of NNC(=O)c1cc(-c2ccc(Cl)cc2)nc2ccccc12 and report it.
238 to 240 °C

Find the measured melting point of O=S1CCNc2ccccc21 (centres undefined) and report it.
201 to 203 °C

Find the measured melting point of CC1CN(C(=O)CC#N)CC(C)O1 (centres undefined) and report it.
125 to 127 °C

Find the measured melting point of O=C(O)c1csc(-c2ccccc2Cl)n1 and report it.
192 to 194 °C
